# ASSAY PROTOCOL: Insulin oral delivery, serum human insulin by ELISA
# MEASUREMENT SETUP: rats, delivery agent compound 100 mg/kg, insulin 3 mg/kg, 0.5 ml/kg
So I've got a bunch of compounds here, and I need their Mean Peak Serum [INS] ± SD values.
One number for each entry, in μU/ml.

Example entries begin here.
- CCC(=O)c1ccccc1OCCCC(=O)O [Compound 26]: 240.5
- O=C(O)CCCCCCCCCOc1cccc(O)c1 [Compound 44]: 97.49
- O=C(O)CCCCCCCOc1ccccc1Cl [Compound 73]: 147.66

# per-item lookup of Mean Peak Serum [INS] ± SD; items listed below
1. CC(=O)c1ccccc1OCCCCCCCC(=O)O [Compound 12]
2. CNC(=O)c1ccccc1OCCCCCCCC(=O)O [Compound 31]
3. O=C(O)CCCCCCCOc1cc([N+](=O)[O-])ccc1O [Compound 74]
4. CCNC(=O)c1ccccc1OCCCCCCCC(=O)O [Compound 33, 8-(2-(N-ethylbenzamide)oxy)octanoic acid]
5. O=C(O)CCCCCOc1ccc(O)cc1 [Compound 49]

1: 205.4; 2: 21.26; 3: 70.69; 4: 58.13; 5: 335.7

====

# ASSAY PROTOCOL: Insulin oral delivery, serum human insulin by ELISA
# MEASUREMENT SETUP: rats, delivery agent compound 200 mg/kg, insulin 3 mg/kg, 1 ml/kg
So I've got a bunch of compounds here, and I need their Mean Peak Serum [INS] ± SD values.
Please state the number and follow it with the unit.

Example entries begin here.
- O=C(O)CCCCCCCCCCOc1ccccc1O: 4702.5 ± 4700.4 μU/ml
- CC(=O)c1cc(O)ccc1OCCCCCCCC(=O)O: 3322 ± 2721 μU/ml
- O=C(O)CCCCCCCOc1ccccc1C(=O)O: 6.38 ± 4.42 μU/ml

Moving on to the next compound.
Returns the measured Mean Peak Serum [INS] ± SD for the input compound. Input: O=C(O)CCCCCCCOc1cccc(Cl)c1
76.23 ± 76.88 μU/ml

====

# ASSAY PROTOCOL: Insulin oral delivery, serum human insulin by ELISA
# MEASUREMENT SETUP: rats, delivery agent compound 200 mg/kg, insulin 0.5 mg/kg, 1 ml/kg
The label is Y for Mean Peak Serum [INS] ± SD below 60 μU/ml and N for Mean Peak Serum [INS] ± SD equal to or exceeding 60 μU/ml.

Take a look at these entries with their results.
• COc1ccccc1OCCCCCCCC(=O)O = N
• O=C(O)CCCCCCCOc1ccccc1C(=O)O = Y
• O=C(O)CCCCCCOc1ccccc1O [Compound 6, (2-hydroxyphenyl)-7-oxyheptanoic acid] = N

Please state whether Mean Peak Serum [INS] ± SD is below 60 μU/ml for Nc1ccccc1OCCCCC(=O)O
Y

Please state whether Mean Peak Serum [INS] ± SD is below 60 μU/ml for Nc1ccccc1OCCCCCCCC(=O)O
Y

Please state whether Mean Peak Serum [INS] ± SD is below 60 μU/ml for NC(=O)c1ccccc1OCCCCCCCC(=O)O
Y

Please state whether Mean Peak Serum [INS] ± SD is below 60 μU/ml for O=C(O)CCCCCOc1cccc(O)c1
N

Please state whether Mean Peak Serum [INS] ± SD is below 60 μU/ml for O=C(O)CCCCCCCOc1ccccc1[N+](=O)[O-]
Y

Please state whether Mean Peak Serum [INS] ± SD is below 60 μU/ml for Nc1cc(Cl)ccc1OCCCCCCCC(=O)O
Y

Please state whether Mean Peak Serum [INS] ± SD is below 60 μU/ml for O=C(O)CCCCCCCCCOc1ccccc1O
Y

Please state whether Mean Peak Serum [INS] ± SD is below 60 μU/ml for O=Cc1ccccc1OCc1ccc(C(=O)O)cc1
N

====

# ASSAY PROTOCOL: Salmon calcitonin (sCT) oral delivery, serum sCT by EIA
# MEASUREMENT SETUP: rats, delivery agent compound dose 150 mg/kg, sCT dose 30 μg/kg, dose volume 2 (ml)
REPORTED PROPERTY: Mean Peak Serum sCT (pg/ml ± SD) (SE) (pg/mL)
Answers are plain numbers, in pg/mL.

Example entries begin here.
* O=C(O)CCCCCCCCCOc1ccccc1O | 36
* O=C(O)CCCCCCCOc1ccc(F)cc1F | 302
* CC=Cc1ccccc1OCCCCCCCC(=O)O | 14
* O=C(O)c1ccc(COc2ccc(O)cc2)cc1 | 681

Returns the measured Mean Peak Serum sCT (pg/ml ± SD) (SE) for the input molecule. Input: O=C(O)CCCCCOc1ccccc1
116

====

# ASSAY PROTOCOL: Insulin pulmonary delivery, serum insulin by ELISA, ratio to insulin-alone control
# Format: in vivo, Sprague-Dawley rats
# MEASUREMENT SETUP: pulmonary, rats; volume 0.4 ml/kg, delivery agent compound 0.03 mg/kg, insulin 0.3 mg/kg (so in the source)
Use satisfied when the recorded Mean Ratio of AUC for insulin + compound versus AUC for insulin alone is no lower than 1; use not satisfied when it is lower.

• O=C(O)CCCCCCCOc1cccc(O)c1 = satisfied
• O=C(O)CCCCCCCOc1ccc(O)cc1 [Compound 47, (4-hydroxyphenyl)-8-oxyoctanoic acid] = not satisfied
• O=C(O)CCCCCOc1ccc(O)cc1 = not satisfied
• O=C(O)CCCCCCCCCOc1cccc(O)c1 = not satisfied

Decide: is the reported value of Mean Ratio of AUC for insulin + compound versus AUC for insulin alone for O=C(O)CCCCCCCCCOc1ccc(O)cc1 equal to or greater than 1?
satisfied

====

# ASSAY PROTOCOL: Salmon calcitonin (sCT) oral delivery, serum sCT by EIA
# MEASUREMENT SETUP: rats, delivery agent compound dose 150 mg/kg, sCT dose 30 μg/kg, dose volume 1 (ml)
REPORTED PROPERTY: Mean Peak Serum sCT (pg/ml ± SD) (SE)

• CCC(=O)c1ccccc1OCCCCCCCC(=O)O [Compound 28] = 138 ± 90 pg/mL
• CC(=O)c1ccccc1OCCCCCCCCCC(=O)O [Compound 54] = 34 ± 47 pg/mL
• O=C(O)CCCCCCCOc1ccc(O)cc1 [Compound 47, (4-hydroxyphenyl)-8-oxyoctanoic acid] = 62 ± 99 pg/mL
• CC(=O)c1ccccc1OCCCCCC(=O)O [Compound 11] = 526 ± 415 pg/mL
• O=C(O)C=Cc1ccccc1OCCCCCCCC(=O)O [Compound 25] = 53 ± 77 pg/mL
• NC(=O)c1ccccc1OCc1ccc(C(=O)O)cc1 [Compound 52] = 163 ± 300 pg/mL

# per-item lookup of Mean Peak Serum sCT (pg/ml ± SD) (SE); items listed below
1. CCNC(=O)c1ccccc1OCCCCCCCC(=O)O [Compound 33, 8-(2-(N-ethylbenzamide)oxy)octanoic acid]
2. CCC(=O)c1ccccc1OCCCCCC(=O)O [Compound 27]
3. O=C(O)CCCCCOc1ccccc1O [Compound 5]

1. 96 ± 209 pg/mL
2. 163 ± 106 pg/mL
3. 349 ± 348 pg/mL

====

# ASSAY PROTOCOL: Recombinant human growth hormone (rhGH) oral delivery, serum rhGH by immunoassay
# MEASUREMENT SETUP: oral gavage, rats; delivery agent compound 200 mg/kg, rhGH 3 mg/kg, volume dose 1 ml
Use Yes when the recorded Mean Peak Serum [rhGH] is no lower than 10 ng/mL; use No when it is lower.

Decide: is the reported value of Mean Peak Serum [rhGH] for CCC(=O)c1ccccc1OCCCCCC(=O)O equal to or greater than 10 ng/mL?
Yes

Decide: is the reported value of Mean Peak Serum [rhGH] for CC(=O)c1cccc(OCCCCCCCC(=O)O)c1 equal to or greater than 10 ng/mL?
No

Decide: is the reported value of Mean Peak Serum [rhGH] for O=C(O)CCCOc1ccccc1O equal to or greater than 10 ng/mL?
Yes

Decide: is the reported value of Mean Peak Serum [rhGH] for O=C(O)CCCOc1ccccc1 equal to or greater than 10 ng/mL?
Yes

Decide: is the reported value of Mean Peak Serum [rhGH] for COc1ccc(OCCCCCCCC(=O)O)c(C(C)=O)c1 equal to or greater than 10 ng/mL?
Yes

Decide: is the reported value of Mean Peak Serum [rhGH] for CC(C)(O)c1ccccc1OCc1ccc(C(=O)O)cc1 equal to or greater than 10 ng/mL?
Yes

Decide: is the reported value of Mean Peak Serum [rhGH] for O=C(O)CCCCCCCOc1ccccc1C(=O)O equal to or greater than 10 ng/mL?
No

Decide: is the reported value of Mean Peak Serum [rhGH] for CCC(=O)c1ccccc1OCCCC(=O)O equal to or greater than 10 ng/mL?
No

Decide: is the reported value of Mean Peak Serum [rhGH] for COc1cccc(OCCCCCCCC(=O)O)c1C(C)=O equal to or greater than 10 ng/mL?
No

====

# ASSAY PROTOCOL: Insulin pulmonary delivery, serum insulin by ELISA, ratio to insulin-alone control
# Type: in vivo, Sprague-Dawley rats
# MEASUREMENT SETUP: Table 9 pulmonary delivery, rats; volume 1 ml/kg, delivery agent compound 3 mg/kg, insulin 100 mg/kg (so in the source)
So I've got a bunch of compounds here, and I need their Cmax (serum insulin) values.
Please state the number and follow it with the unit.

Example entries begin here.
* CC(=O)c1ccccc1OCCCCC(=O)O [Compound 10] | 63.5884 μU/ml
* CCC(=O)c1ccc(OCCCCCCCC(=O)O)cc1 [Compound 63] | 7.843 μU/ml
* O=C(O)C=Cc1ccccc1OCCCCCCCC(=O)O [Compound 25] | 47.2162 μU/ml
* CC(=O)c1ccccc1OCc1ccc(C(=O)O)cc1 [Compound 1] | 74.237 μU/ml

Moving on to the next compound.
Returns the measured Cmax (serum insulin) for the input compound. Input: O=C(O)CCCCCCCOc1ccccc1O [Compound 7, 8-(2-hydroxyphenoxy)octanoic acid]
130.9724 μU/ml
